All values here come from the supplement of paper PMC11208160.

- ASSAY_REMARKS: recombinant barcode read abundance after kanamycin selection (control-corrected) (log10(CPM+1)); higher = more efficient recombination; sequences stand for … in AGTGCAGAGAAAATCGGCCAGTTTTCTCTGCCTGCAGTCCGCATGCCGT…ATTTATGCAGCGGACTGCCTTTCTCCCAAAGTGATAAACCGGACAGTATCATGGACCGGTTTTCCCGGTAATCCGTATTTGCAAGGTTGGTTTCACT; site = the 11-nt target
MEASURED_PROPERTY: recombinant barcode read abundance (log10)

// worked examples, recombinant barcode read abundance (log10) included
AGGAGGTCTTGGGTTCTAACCTGTTGCCTCA [AGGAGGTCTAG_LTGcore_CT_RTGcore_TG] (site AGGAGGTCTAG) (LTG core: CT, RTG core: TG) ... 0.322
GAGTCCACTTGGGTTCTAACCTGTTGCGTCA [GAGTCCACTAC_LTGcore_CT_RTGcore_TG] (site GAGTCCACTAC) (LTG core: CT, RTG core: TG) ... 0.0372
GAGCCCACTTGGGTTCTAACCTGTTGCCTCT [GAGCCCACTAG_LTGcore_CT_RTGcore_AG] (site GAGCCCACTAG) (LTG core: CT, RTG core: AG) ... 0
ATGTCCCTCTGGGTTCTAACCTGTTGCTCGA [ATGTCCCCTGA_LTGcore_TC_RTGcore_TC] (site ATGTCCCCTGA) (LTG core: TC, RTG core: TC) ... 0.122

Pending sequence:
Request: Report measured recombinant barcode read abundance (log10); entry is GTCGCCCGCTGGGTTCTAACCTGTTGCTAAG [GTCGCCCCTTA_LTGcore_GC_RTGcore_CT] (site GTCGCCCCTTA) (LTG core: GC, RTG core: CT)
Response: 0.224

----------
- ASSAY_REMARKS: recombinant UMI read abundance after kanamycin selection (control-corrected) (log10(CPM+1)); higher = more efficient recombination; extreme values may be limits of the assay; sequences stand for … in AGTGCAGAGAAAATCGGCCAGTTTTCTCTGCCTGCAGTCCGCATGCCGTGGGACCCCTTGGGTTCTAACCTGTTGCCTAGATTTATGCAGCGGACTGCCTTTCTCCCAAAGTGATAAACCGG…AGGTTGGTTTCACT; site = the 11-nt donor
I would appreciate it if you labelled entries yes when recombinant UMI read abundance (log10) is 0.8 or higher, otherwise no.

Completed entries (count: 5):
TATTTGGCATGGACCGGTTTTCCCGGTAATCCGTATTTGGG (site TATTTGGCTCT) ... no
TCATACTCATGGACCGGTTTTCCCGGTAATCCGTATTTGCG (site TCATACTCTCG) ... yes
CGAGCAGCATGGACCGGTTTTCCCGGTAATCCGTATTTGCT (site CGAGCAGCTAG) ... yes
GTCTATACATGGACCGGTTTTCCCGGTAATCCGTATTTGAC (site ATCTATACTGT) ... yes
TTTGGGGCATGGACCGGTTTTCCCGGTAATCCGTATTTGCT (site TTTGTGGCTAG) ... no

Request: Dear colleague, could you confirm whether CTAGTATCATGGACCGGTTTTCCCGGTAATCCGTATTTGAC (site CTAGTCTCTCT) has recombinant UMI read abundance (log10) at or above 0.8?
Response: no

Request: Dear colleague, could you confirm whether TTAGCAGCATGGACCGGTTTTCCCGGTAATCCGTATTTGCC (site TTAGCAGCTGG) has recombinant UMI read abundance (log10) at or above 0.8?
Response: yes

Request: Dear colleague, could you confirm whether AACTAGACATGGACCGGTTTTCCCGGTAATCCGTATTTGAG (site AACTAGACTCT) has recombinant UMI read abundance (log10) at or above 0.8?
Response: yes

Request: Dear colleague, could you confirm whether CCACTAACATGGACCGGTTTTCCCGGTAATCCGTATTTGGA (site CAACTAACTTC) has recombinant UMI read abundance (log10) at or above 0.8?
Response: no

----------
recombinant UMI read abundance (log10) listing for selected sequences.
- ASSAY_REMARKS: recombinant UMI read abundance after kanamycin selection (control-corrected) (log10(CPM+1)); higher = more efficient recombination; extreme values may be limits of the assay; sequences stand for … in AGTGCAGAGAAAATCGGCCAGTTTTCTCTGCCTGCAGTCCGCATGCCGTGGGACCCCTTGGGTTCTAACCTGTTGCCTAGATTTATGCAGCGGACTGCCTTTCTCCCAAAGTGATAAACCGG…AGGTTGGTTTCACT; site = the 11-nt donor
// no unit, no text: just the number

Request: Report measured recombinant UMI read abundance (log10); entry is GCATTATCATGGACCGGTTTTCCCGGTAATCCGTATTTGGC (site GCATTATCTGC)
Response: 2.82

----------
- ASSAY_REMARKS: recombinant UMI read abundance after kanamycin selection (control-corrected) (log10(CPM+1)); higher = more efficient recombination; extreme values may be limits of the assay; sequences stand for … in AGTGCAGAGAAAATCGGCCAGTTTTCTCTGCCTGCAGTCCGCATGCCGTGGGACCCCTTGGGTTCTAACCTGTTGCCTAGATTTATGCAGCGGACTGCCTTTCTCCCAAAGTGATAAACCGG…AGGTTGGTTTCACT; site = the 11-nt donor
MEASURED_PROPERTY: recombinant UMI read abundance (log10)
// no unit, no text: just the number

// worked examples, recombinant UMI read abundance (log10) included
GCGAATCCATGGACCGGTTTTCCCGGTAATCCGTATTTGGG (site GCGAAACCTCC) ... 0.0049
GTATGCACATGGACCGGTTTTCCCGGTAATCCGTATTTGTC (site GTATGCACTGA) ... 3.13
TGTCCCCCATGGACCGGTTTTCCCGGTAATCCGTATTTGTA (site TGTACCCCTTA) ... 0.013
CAATTCCCATGGACCGGTTTTCCCGGTAATCCGTATTTGCT (site CAGTTCCCTAG) ... 0
ACATGCGCATGGACCGGTTTTCCCGGTAATCCGTATTTGCA (site ACATGCGCTTG) ... 2.86

Request: Report measured recombinant UMI read abundance (log10); entry is AACAGACCATGGACCGGTTTTCCCGGTAATCCGTATTTGTA (site AACAGACCTTA)
Response: 1.25

Request: Report measured recombinant UMI read abundance (log10); entry is TTACGTCCATGGACCGGTTTTCCCGGTAATCCGTATTTGGT (site TTACGTCCTAC)
Response: 0.02

Request: Report measured recombinant UMI read abundance (log10); entry is ATCAAAGCATGGACCGGTTTTCCCGGTAATCCGTATTTGAG (site ATCCAAGCTCT)
Response: 0.889

Request: Report measured recombinant UMI read abundance (log10); entry is TGTTTGGCATGGACCGGTTTTCCCGGTAATCCGTATTTGCT (site CGTTTGGCTAG)
Response: 0.00328

----------
- ASSAY_REMARKS: recombinant barcode read abundance after kanamycin selection (control-corrected) (log10(CPM+1)); higher = more efficient recombination; sequences stand for … in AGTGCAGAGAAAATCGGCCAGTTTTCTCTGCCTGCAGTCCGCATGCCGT…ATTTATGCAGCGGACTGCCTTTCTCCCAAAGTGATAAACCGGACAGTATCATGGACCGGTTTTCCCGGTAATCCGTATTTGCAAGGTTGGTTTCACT; site = the 11-nt target
I would appreciate it if you labelled entries 1 when recombinant barcode read abundance (log10) is 0.03 or higher, otherwise 0.

Completed entries (count: 3):
GGTGCCCGATGGGTTCTAACCTGTTGCCGAG [GGTGCCCCTCG_LTGcore_GA_RTGcore_CT] (site GGTGCCCCTCG) (LTG core: GA, RTG core: CT) ... 0
GAGTCCACTTGGGTTCTAACCTGTTGCGTGC [GAGTCCACTAC_LTGcore_CT_RTGcore_GC] (site GAGTCCACTAC) (LTG core: CT, RTG core: GC) ... 0
TGTATTCCTTGGGTTCTAACCTGTTGCCTCC [TGTATTCCTAG_LTGcore_CT_RTGcore_GG] (site TGTATTCCTAG) (LTG core: CT, RTG core: GG) ... 1

Read the next record carefully.
Request: Dear colleague, could you confirm whether GAGGCCTATTGGGTTCTAACCTGTTGCCAAT [GAGGCCTCTTG_LTGcore_AT_RTGcore_AT] (site GAGGCCTCTTG) (LTG core: AT, RTG core: AT) has recombinant barcode read abundance (log10) at or above 0.03?
Response: 1

----------
- ASSAY_REMARKS: recombinant UMI read abundance after kanamycin selection (control-corrected) (log10(CPM+1)); higher = more efficient recombination; extreme values may be limits of the assay; sequences stand for … in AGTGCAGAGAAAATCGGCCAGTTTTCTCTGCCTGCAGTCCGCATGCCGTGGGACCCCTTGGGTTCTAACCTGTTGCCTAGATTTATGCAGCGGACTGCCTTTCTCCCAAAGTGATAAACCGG…AGGTTGGTTTCACT; site = the 11-nt donor
MEASURED_PROPERTY: recombinant UMI read abundance (log10)
// no unit, no text: just the number

CCGTTTTCATGGACCGGTTTTCCCGGTAATCCGTATTTGCT (site CCGTTTGCTAG) ... 0
CGGACATCATGGACCGGTTTTCCCGGTAATCCGTATTTGCG (site CGGACATCTAG) ... 0
ACACGAACATGGACCGGTTTTCCCGGTAATCCGTATTTGTT (site ACACGAACTTA) ... 1.35

Request: Report measured recombinant UMI read abundance (log10); entry is TAGCCATCATGGACCGGTTTTCCCGGTAATCCGTATTTGGT (site TAGCCTTCTAC)
Response: 0.0124

Request: Report measured recombinant UMI read abundance (log10); entry is ACGCCTCCATGGACCGGTTTTCCCGGTAATCCGTATTTGTG (site ACGCCTCCTCA)
Response: 0.0426
